# System: pigweed (Amaranthus retroflexus)
# protocolDescription: Test A preemergence
# Format: in vivo
# assayContext: Preemergence, 500 g ai/ha, visual injury approx. 10 d
Simple rule here: Pigweed plant response rating (0 to 100 scale, 0 is no effect, 100 is complete control) less than 30 is met, otherwise not met.

| compound | categoryLabel |
| --- | --- |
| CC(C)=CCN1CC(c2cccc(C(F)(F)F)c2)C(C(=O)Nc2ccccc2F)C1=O (stereo not shown) | met |
| Cc1ccc(F)c(NC(=O)C2C(=O)NCC2c2ccc(F)c(F)c2)c1 (stereo not shown) | met |
| CCc1cccc(C2CN(C)C(=O)C2C(=O)Nc2ccc(F)cc2F)c1 (stereo not shown) | not met |
| Cc1cc(C2CN(C)C(=O)C2C(=O)Nc2cccc(F)c2F)ccc1F (stereo not shown) | not met |
| CN1CC(c2cccc(C(F)(F)F)c2)C(C(=O)Nc2ccccc2)C1=O (stereo not shown) | not met |
| C=C(Cl)CN1CC(c2cccc(C(F)(F)F)c2)C(C(=O)Nc2ccccc2F)C1=O (stereo not shown) | met |
| CN1CC(c2cccc(C(F)(F)F)c2)C(C(=O)Nc2ccccc2[N+](=O)[O-])C1=O (stereo not shown) | not met |
| CN1CC(c2ccc(Cl)cc2)C(C(=O)Nc2ccccc2S(C)(=O)=O)C1=O (stereo not shown) | not met |

----------
# System: giant foxtail (Setaria faberii)
# protocolDescription: Test A preemergence
# Format: in vivo
# assayContext: Setaria faberi, pre-emergence, 240 h, 125 g ai/ha, preemergence; visual injury rating, 0 to 100 scale where 0 is no effect and 100 is complete control; approximately 10 d; read-out: Foxtail, Giant plant response rating

| compound | assayedTarget | pest or weed control at 125 g/ha [%] |
| --- | --- | --- |
| CN1C[C@H](c2ccc(C(F)F)cc2)[C@@H](C(=O)Nc2ccc(F)c(F)c2F)C1=O | giant foxtail (Setaria faberii) | 90 |
| Cc1c(F)cccc1NC(=O)[C@H]1C(=O)N(C)C[C@@H]1c1ccc(F)cc1 | giant foxtail (Setaria faberii) | 100 |
| Cc1cc([C@H]2CN(C)C(=O)[C@@H]2C(=O)Nc2cccc(F)c2F)no1 | giant foxtail (Setaria faberii) | 60 |
| COc1cc([C@H]2CN(C)C(=O)[C@@H]2C(=O)Nc2ccccc2F)ccc1F | giant foxtail (Setaria faberii) | 90 |
| O=C(Nc1ccccc1F)[C@H]1C(=O)N(CC(F)F)C[C@@H]1c1cccc(C(F)(F)F)c1 | giant foxtail (Setaria faberii) | 40 |
| Cc1cc([C@H]2CN(C)C(=O)[C@@H]2C(=O)Nc2ccccc2F)on1 | giant foxtail (Setaria faberii) | 0 |
| O=C1NC[C@H](c2cccc(C(F)(F)F)c2)C1C(=O)Nc1ccccc1CO (some centres unmarked) | giant foxtail (Setaria faberii) | 90 |
| CN1C[C@H](c2cccc(C#N)c2)[C@@H](C(=O)Nc2ccccc2F)C1=O | giant foxtail (Setaria faberii) | 100 |
| CN1C[C@H](c2cccc(C(F)(F)F)c2)[C@@H](C(=O)Nc2ccccc2-n2cccn2)C1=O | giant foxtail (Setaria faberii) | 0 |
| CCc1ccc([C@H]2CNC(=O)[C@@H]2C(=O)Nc2c(F)cccc2F)cc1 | giant foxtail (Setaria faberii) | 0 |
| Cn1ccc2ccc([C@H]3CNC(=O)[C@@H]3C(=O)Nc3ccccc3F)cc21 | giant foxtail (Setaria faberii) | 0 |

Origin of values: patent US12077503B2
